# measurement-target: recombinant human lung-derived phosphodiesterase V (Homo sapiens)
# protocol: Inhibitor screening system: [3H]cGMP SPA phosphodiesterase enzyme assay
property: pIC50
Please treat pIC50 as minus the base-10 logarithm of the molar concentration.

Request: Can you share its pIC50? I mean this compound: Cc1c2c(c(-c3ccc(F)cc3)c3c4c(ccc13)OCO4)C(=O)NC2=O [Formula 1]
Result: 8.64
